Biological target: αIIb (INTEGRIN, ALPHA 2B; PLATELET GLYCOPROTEIN IIB OF IIB/IIIA COMPLEX, ANTIGEN CD41) (human) (UniProt P08514)
Test: αIIb complexes captured, mass spectrometry; No. Expts 1
REPORTED_PROPERTY: #Peptides (peptides)

INSERT INTO measurements (substance, units, numeric_readout) VALUES
  ('CITRON (RHO-…, SERINE/THREONINE KINASE 21) (from UniProt O14578 1-2027)', 'peptides', 4),
  ('CULLIN 5 (from UniProt Q93034 1-780)', 'peptides', 5);

a. SODIUM CHANNEL, VOLTAGE-GATED, TYPE X, ALPHA (from UniProt Q9Y5Y9 1-1956)
b. ENGULFMENT AND CELL MOTILITY 1 (from UniProt Q92556 1-727)
c. PROTEIN PHOSPHATASE 1, REGULATORY (INHIBITOR) SUBUNIT 9A (from UniProt Q9ULJ8 1-1098)
d. NON-POU DOMAIN CONTAINING, OCTAMER-BINDING (from UniProt Q15233 1-471)
In: Ascending by #Peptides, please: list the substances accordingly. Give the labels in the order requested.
Out: b, c, a, d
